Target: Human recombinant FAP (Homo sapiens, UniProt Q12884)
Assay: FRET-based FAP protease activity assay
Assay type: biochemical
Parameters: purchased R&D systems 3715-SE
Settings: pIC50 Category (Activity), FRET-based FAP protease activity assay, recombinant human FAP, 37° C.
The entries below are paired with their reported IC50.

| Chemical structure | IC50 |
| --- | --- |
| C[C@@H](O)[C@@H]1NC(=O)[C@@H]2CCCN2C(=O)[C@@H]2CCCN2C(=O)[C@@H](NC(=O)CCCS(N)(=O)=O)CSCc2cccc(c2)CSC[C@@H](C(N)=O)NC(=O)[C@H](Cc2ccccc2)NC(=O)[C@H](CCC(N)=O)NC1=O | > 1000 nM |

// moving on: another record for IC50
Short answer for CCCCCC(=O)N[C@H]1CSCc2cc(CSCCNC(=O)CN3CCN(CC(=O)O)CCN(CC(=O)O)CCN(CC(=O)O)CC3)cc(c2)CSC[C@@H](C(=O)NCCCC(=O)O)NC(=O)[C@H](Cc2ccccc2)NC(=O)[C@H](CCC(N)=O)NC(=O)[C@H]([C@@H](C)O)NC(=O)[C@@H]2CCCN2C(=O)[C@@H]2CCCN2C1=O : IC50 was < 10 nM

---

Parameter pIC50, tested on FAP-expressing human WI-38 fibroblasts (Homo sapiens, UniProt Q12884), listed per item.
Sequence (Q12884 whole entry): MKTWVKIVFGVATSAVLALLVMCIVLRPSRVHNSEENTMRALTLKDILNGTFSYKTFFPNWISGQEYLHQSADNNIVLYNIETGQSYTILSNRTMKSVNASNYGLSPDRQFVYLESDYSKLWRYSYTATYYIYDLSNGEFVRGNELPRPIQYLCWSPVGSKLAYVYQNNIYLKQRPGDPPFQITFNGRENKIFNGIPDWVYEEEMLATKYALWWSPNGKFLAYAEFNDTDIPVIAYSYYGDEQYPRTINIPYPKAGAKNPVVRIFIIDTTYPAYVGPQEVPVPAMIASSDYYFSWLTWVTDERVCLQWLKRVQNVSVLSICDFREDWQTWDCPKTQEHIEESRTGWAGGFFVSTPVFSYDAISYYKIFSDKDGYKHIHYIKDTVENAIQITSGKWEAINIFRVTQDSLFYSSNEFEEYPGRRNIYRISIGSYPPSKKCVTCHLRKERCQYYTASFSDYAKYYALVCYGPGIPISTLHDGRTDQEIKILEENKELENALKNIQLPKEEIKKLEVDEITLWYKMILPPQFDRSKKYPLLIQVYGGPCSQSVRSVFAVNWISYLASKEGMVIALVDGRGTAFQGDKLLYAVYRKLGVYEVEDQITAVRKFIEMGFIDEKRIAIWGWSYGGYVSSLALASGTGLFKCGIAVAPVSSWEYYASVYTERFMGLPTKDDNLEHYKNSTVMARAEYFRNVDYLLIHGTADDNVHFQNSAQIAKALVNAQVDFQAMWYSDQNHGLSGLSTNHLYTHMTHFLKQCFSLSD
pIC50: −log10 of the molar value. Numbered stars: 1 amine (or outer) side, 2 acyl side, 3 side chain; on linkers, the order of the positions; unused ones are H or OH. Bridge positions count the residues as written; N and C are the ends. Square brackets hold non-standard residues; d marks the D form. Peptide text beside a SMILES is read from it. * marks the point of attachment. TBMB(SCH2CH2NH-DOTA) = O=C(O)CN1CCN(CC(=O)O)CCN(CC(=O)NCCSCc2cc(C[*:1])cc(C[*:2])c2)CCN(CC(=O)O)CC1; 1Nal = N[C@@H](Cc1cccc2ccccc12)C(=O)O; mXylylene = c1cc(C[*:1])cc(C[*:2])c1; Hexanoyl = CCCCCC(=O)*; CO = O=C([*:1])[*:2]; Sar = CNCC(=O)O; NHBu = CCCCN*

Field: example entries. Status: answers known.
| Compound | pIC50 |
| --- | --- |
| CCCCNC(=O)N[C@H]1CSCc2cc(CSCCNC(=O)CN3CCN(CC(=O)O)CCN(CC(=O)O)CCN(CC(=O)O)CC3)cc(c2)CSC[C@@H](C(=O)O)NC(=O)[C@H](Cc2ccccc2)NC(=O)[C@H](CCC(N)=O)NC(=O)[C@H]([C@@H](C)O)NC(=O)[C@@H]2CCCN2C(=O)CN(C)C1=O [3BP-4607] ({NHBu-CO}-C[Sar]PTQFC-OH; linker 1-7 via TBMB(SCH2CH2NH-DOTA)) | > 8.00 |
| CCCCCC(=O)N[C@H]1CSCc2cccc(c2)CSC[C@@H](C(N)=O)NC(=O)[C@H](Cc2cccc3ccccc23)NC(=O)[C@H](CCC(=O)O)NC(=O)[C@H]([C@@H](C)O)NC(=O)[C@@H]2CCCN2C(=O)[C@@H]2CCCN2C1=O [3BP-3361] (Hexanoyl-CPPTE[1Nal]C-NH2; linker 1-7 via mXylylene) | 7.10 to 8.00 |

// moving on: another record for pIC50
Short answer for C#CCCC(=O)N[C@H]1CSCc2cc(CSCCNC(=O)CN3CCN(CC(=O)O)CCN(CC(=O)O)CCN(CC(=O)O)CC3)cc(c2)CSC[C@@H](C(=O)O)NC(=O)[C@H](Cc2ccccc2)NC(=O)[C@H](CCC(N)=O)NC(=O)[C@H]([C@@H](C)O)NC(=O)[C@@H]2CCCN2C(=O)[C@@H]2CCCN2C1=O : pIC50 was 7.10 to 8.00
